test system: BT-549 breast; assay: NCI tumour cell line growth inhibition, 48 h
Readout: GI50

>>> result("COc1cc(-c2nn(-c3ccc(NC(=O)NCCCNC(=O)c4ccccc4)cc3)cc2-c2ccncc2)ccc1Cl")
"887 nM"
>>> result("CC(=O)OC1Oc2ccc(C)cc2-c2oc(=O)c(-c3cc4ccccc4oc3=O)cc21 (stereo not given)")
"3030 nM"
>>> result("CCN(CC)c1ccc2c(cc1=O)[C@@H](NC(C)=O)CCc1cc(OC)c(OC)c(OC)c1-2")
"245 nM"
>>> result("c1ccc(CSc2nnc3c4c5c(sc4nc(-c4cccnc4)n23)CCCCCC5)cc1")
"2800 nM"
>>> result("COc1cc(C(C)c2ccc3c(ccn3C)c2)cc(OC)c1OC (stereo not given)")
"23.1 nM"

====

tested on: A498 renal; assay: NCI tumour cell line growth inhibition, 48 h
In this section, each of the molecules is paired with its reported TGI.
Readout: TGI

>>> result("COC(=O)C(=O)C(C(=O)OC)C(=O)C(=O)Nc1ccccc1C(N)=O (stereo unspecified)")
"> 100 µM"
>>> result("Cc1nc2ccccc2c(/C=C/c2ccc(Cl)cc2)c1C(=O)/C=C/c1ccc(F)cc1")
"3.22 µM"
>>> result("O=C1C(=O)c2ccccc2C(O)=C1Cc1ccccc1")
"> 100 µM"
>>> result("CC1=C(O)C(=O)C2C(=O)C1C(C)C2c1ccc(C)cc1 (stereo unspecified)")
"> 100 µM"
>>> result("CC(C)(C)OC(=O)NCC(c1c[nH]c2ccc(Br)cc12)c1c[nH]c2ccc(Br)cc12")
"29.1 µM"
>>> result("COc1cccc2cc(N(C)c3ncnc4ccccc34)ccc12")
"11 µM"
>>> result("CC(C)(C)C(=O)CC1(O)C=C(O)C(O)(CC(=O)C(C)(C)C)O1 (stereo unspecified)")
"> 100 µM"
>>> result("NC(Cc1c[nH]c2ccccc12)P(=O)(O)O (stereo unspecified)")
"> 100 µM"
>>> result("O=C1CC2(CCC(O)(c3cccc4ccccc34)C(C(=O)c3cccc4ccccc34)C2)C(=O)c2ccccc2N1 (stereo unspecified)")
"> 100 µM"
>>> result("O=c1[nH]c2ccc(N=Cc3c(O)[nH]c4ccccc34)cc2[nH]1")
"> 25 µM"
>>> result("CC(=NCC(=O)O)c1ccccc1")
"> 100 µM"

====

In this section, each of the compounds is paired with its reported TGI.
tested on: K-562 leukemia; experiment: NCI tumour cell line growth inhibition, 48 h
Readout: TGI

>>> result("CCN(CC)c1ccc2c(cc1=O)[C@@H](NC(C)=O)CCc1cc(OC)c(OC)c(OC)c1-2")
"> 100 µM"
>>> result("CCCCn1c(C)c(C(=O)CC)c(C(=O)NCCN2CCN(c3ccccc3Cl)CC2)c1C")
"> 100 µM"
>>> result("CC(C)(C)c1ccc2c(c1)C(=O)c1ccccc1C2=O")
"> 100 µM"
>>> result("COC(=O)C(CCC1CC(OC)N(C(=O)OCc2ccccc2)C1)N=Cc1ccccc1 (stereo not given)")
"> 100 µM"
>>> result("CNC(=S)NC(=S)N(C)C")
"> 100 µM"
>>> result("O=c1[nH]c2ccc(N=Cc3c(O)[nH]c4ccccc34)cc2[nH]1")
"> 25 µM"
>>> result("Cc1oc2c(c1C)S(=O)(=O)C(C#N)=CN2")
"> 100 µM"
>>> result("CC(=O)Nc1ccc2c(C3=C(c4cn(C)c5ccccc45)C(=O)NC3=O)cn(C)c2c1")
"> 25 µM"
>>> result("CN(C)c1ccc(/C=N/N=C2\\C(=O)Nc3c(Cl)cc(Cl)cc32)cc1")
"> 100 µM"
>>> result("Cc1nc2ccccc2c(/C=C/c2ccc(Cl)cc2)c1C(=O)/C=C/c1ccc(F)cc1")
"> 100 µM"

====

test system: A498 renal; assay: NCI tumour cell line growth inhibition, 48 h
Readout: TGI

>>> result("CC(=O)NC1=C(C)C(=O)c2c(nc3n2CCC3OC(=O)c2ccccc2)C1=O (stereo not given)")
"25.3 µM"
>>> result("Nc1ncnc2nc(N3CCN(CCO)CC3)[nH]c12")
"> 100 µM"
>>> result("[N-]=[N+]=Nc1ccc2c(c1)Sc1ccccc1N2CCCCN1CCN(Cc2ccc(C(=O)c3ccccc3)cc2)CC1")
"> 29 µM"
>>> result("C=CCCC1CCCCC/C1=N\\N(C)C (stereo not given)")
"> 100 µM"
>>> result("O=C(O)COc1cc(-c2ccccc2)nc2ccc(F)cc12")
"> 100 µM"
>>> result("Cn1c(-c2c(N)n(Cc3ccc(C(F)(F)F)cc3)c3nc(C#N)c(C#N)nc23)nc2ccccc21")
"25.3 µM"
>>> result("Cc1n[nH]c(=O)n1-c1cccnc1")
"> 100 µM"
>>> result("COc1cc2c(cc1OCCCNC(=O)/C=C1/C[C@H]3C=Nc4cc(OCc5ccccc5)c(OC)cc4C(=O)N3C1)NC(=O)[C@@H]1CCCN1C2=O")
"> 100 µM"
>>> result("CC(C)OP(=O)(c1ccccc1)c1ccc2c(c1)OCCOCCOCCOCCO2 (stereo not given)")
"> 100 µM"
>>> result("COc1cc2c(cc1OC)C(Cc1ccc(Oc3cc(CC4c5cc(OC)c(OC)cc5CCN4C)ccc3O)cc1)N(C)CC2 (stereo not given)")
"49.1 µM"

====

system: OVCAR-8 ovarian; experiment: NCI tumour cell line growth inhibition, 48 h
Readout: TGI

>>> result("CCc1c(C)[nH]c2c1/C(=N/N=C1\\CCCc3[nH]c(C)c(CC)c31)CCC2")
"78.2 µM"
>>> result("Cc1nc2ccccc2c(=O)n1NC(=S)Nc1ccccc1")
"> 100 µM"
>>> result("Cc1cc(Nc2ncc(F)c(N[C@H]3[C@@H](C(N)=O)[C@@H]4C=C[C@H]3C4)n2)ccc1N1CCN(C)CC1")
"6.34 µM"
>>> result("O=[N+]([O-])c1cccc(-c2ncnc(-c3cccc([N+](=O)[O-])c3)n2)c1")
"> 100 µM"
>>> result("COC(=S)OC1CC(n2cnc3c(=O)[nH]cnc32)OC1CO[Si](C)(C)C(C)(C)C (stereo not given)")
"> 100 µM"
>>> result("CN(C)CCCNC(=O)N/N=C\\c1cccc2ccccc12")
"> 10 µM"
>>> result("CC(C)(C)N/N=C(\\C(=O)Nc1ccc([N+](=O)[O-])cc1[N+](=O)[O-])c1nc2ccc([N+](=O)[O-])cc2[nH]c1=O")
"> 100 µM"
>>> result("CN(CCNC(=O)c1nn(-c2ccccc2)c2c1ccc1ccccc12)CCNC(=O)c1nn(-c2ccccc2)c2c1ccc1ccccc12")
"3.29 µM"
>>> result("Fc1ccc(-c2nnc3sc(-c4cc(Cl)cc(Cl)c4)nn23)cc1Cl")
"> 100 µM"
>>> result("Cc1cc(I)cc(CN(C)CCN2CCOCC2)c1O")
"> 100 µM"

====

tested on: HCC-2998 colon; assay: NCI tumour cell line growth inhibition, 48 h
Readout: TGI (µM)

>>> result("Cn1cc(C2=C(c3c4n(c5ccccc35)CCN(C(N)=S)C4)C(=O)NC2=O)c2ccccc21")
20.8
>>> result("CC(=O)Nc1ccc(NNc2cc(=O)n(C)c(=O)[nH]2)cc1")
24
>>> result("COc1cccc2c1C(=O)c1c(O)c3c(c(O)c1C2=O)CC(O)(C(=O)CO)CC3OC1CC(N)C(I)C(C)O1 (configuration not stated)")
27.1
>>> result("C=C(C)C(CC=C(C)C)Cc1c(O)cc(OC)c2c1OC(c1ccc(O)cc1O)C(O)C2=O (configuration not stated)")
30.6
>>> result("CCCCCCCC/C=C\\CCCCCCC/C=C1/C[C@](/C=C/C(=O)OC)(CO)OC1=O")
10.1
>>> result("Oc1c(Cl)cc(Cl)c2ccc(Cn3cc(-c4cc(F)cc(F)c4)nn3)nc12")
29.1
>>> result("COC(=O)CCC1(NS(=O)(=O)c2ccc(C)cc2)CCC(C(C)(C)C)CC1 (configuration not stated)")
30.3
>>> result("CC(=O)OC1Oc2ccc(C)cc2-c2oc(=O)c(-c3cc4ccccc4oc3=O)cc21 (configuration not stated)")
9.33
>>> result("CSc1nc(SC)c2cnn(CC3CO3)c2n1 (configuration not stated)")
31.3

====

tested on: SR leukemia; assay: NCI tumour cell line growth inhibition, 48 h; in the data active = GI50 below about 0.43 µM; inactive = the rest
Classes used: active, inactive

>>> qualitative_label("Cc1cccc(NC2=C(Cl)C(=O)N(Cc3ccc(Cl)cc3)C2=O)c1")
"inactive"
>>> qualitative_label("CCCCCc1c(C)[nH]c(/C=C2\\N=C(c3ccc[nH]3)C=C2Oc2ccccc2)c1C")
"active"
>>> qualitative_label("C[C@]12CC[C@H](OC3OC(O)C(O)C(O)C3O)C=C1CCC1C2CC[C@]2(C)[C@@H](c3ccc(=O)oc3)CC[C@]12O (stereo not given in full)")
"active"
>>> qualitative_label("CC(=O)OC1Oc2ccc(C)cc2-c2oc(=O)c(-c3cc4ccccc4oc3=O)cc21 (stereo not given)")
"inactive"
>>> qualitative_label("Cc1nc2ccccc2c(/C=C/c2ccc(Cl)cc2)c1C(=O)/C=C/c1ccc(F)cc1")
"inactive"
>>> qualitative_label("CCN(CC)c1ccc2c(cc1=O)[C@@H](NC(C)=O)CCc1cc(OC)c(OC)c(OC)c1-2")
"active"
>>> qualitative_label("[N-]=[N+]=NCCCn1c2c(c3ccccc3c1=O)C(=O)c1cc(Br)ccc1-2")
"inactive"
>>> qualitative_label("O=C(Nc1ccc(Oc2cccc(Cl)c2)c(Cl)c1)c1cnccn1")
"active"
>>> qualitative_label("Oc1ccc(-c2cn3ccsc3n2)cc1O")
"inactive"
>>> qualitative_label("Cn1c(-c2c(N)n(Cc3ccc(C(F)(F)F)cc3)c3nc(C#N)c(C#N)nc23)nc2ccccc21")
"inactive"
